- System: E-tag antibody
- Assay method text: ELISA analysis of phage on antibody raised against ETAG (positive control)
- Experimental setup: peptide binding to E-tag antibody; phage ELISA units read at 405 nm
// reported ETAG (OD) for each item listed
Could you give me the number in OD? Just the number is fine.

// solved cases for ETAG (OD) follow
Ordered residues	Observed
SAFGCPLPRALGGGGARFYA (DGI-2-20F-PP-E11; listed as Escherichia coli)	15.2
WAASCFWGHVALGCGRNGQG (DGI-2-20R-3-A11; listed as Escherichia coli)	14.7
RKGWGVFCIPGLRFCDWSDP (DGI-2-20R-3-B4; listed as Escherichia coli)	17.4
LSLEGGWMWDTKGGDGGSAQ (DGI-2-20R-4-F93; listed as Escherichia coli)	19.5
VGQSSGDARPLANLFVFPFV (DGI-2-20F-PP-F12; listed as Escherichia coli)	47.6

Req: Would you kindly share the measured ETAG (OD) for MQAASTLSTYMGAIRMGYPILHWDRGGVQRVDPGLYRGRV (DGI-2-40F-3-B10; listed as Escherichia coli) ?
Resp: 4.8

Req: Would you kindly share the measured ETAG (OD) for MGQGFHYNRQPYMSHQCYAFTFSTPFLDGDRIPHGVSRGL (DGI-2-40F-3-D1; listed as Escherichia coli) ?
Resp: 4.1

Req: Would you kindly share the measured ETAG (OD) for ACSVGTALVFPQRWWYLGRS (DGI-2-20R-3-D6; listed as Escherichia coli) [DGL-2-20R-3-D6] ?
Resp: 12.9
